- measured-target: MET (human) (Homo sapiens, UniProt P08581)
- Sequence (P08581 25-1390): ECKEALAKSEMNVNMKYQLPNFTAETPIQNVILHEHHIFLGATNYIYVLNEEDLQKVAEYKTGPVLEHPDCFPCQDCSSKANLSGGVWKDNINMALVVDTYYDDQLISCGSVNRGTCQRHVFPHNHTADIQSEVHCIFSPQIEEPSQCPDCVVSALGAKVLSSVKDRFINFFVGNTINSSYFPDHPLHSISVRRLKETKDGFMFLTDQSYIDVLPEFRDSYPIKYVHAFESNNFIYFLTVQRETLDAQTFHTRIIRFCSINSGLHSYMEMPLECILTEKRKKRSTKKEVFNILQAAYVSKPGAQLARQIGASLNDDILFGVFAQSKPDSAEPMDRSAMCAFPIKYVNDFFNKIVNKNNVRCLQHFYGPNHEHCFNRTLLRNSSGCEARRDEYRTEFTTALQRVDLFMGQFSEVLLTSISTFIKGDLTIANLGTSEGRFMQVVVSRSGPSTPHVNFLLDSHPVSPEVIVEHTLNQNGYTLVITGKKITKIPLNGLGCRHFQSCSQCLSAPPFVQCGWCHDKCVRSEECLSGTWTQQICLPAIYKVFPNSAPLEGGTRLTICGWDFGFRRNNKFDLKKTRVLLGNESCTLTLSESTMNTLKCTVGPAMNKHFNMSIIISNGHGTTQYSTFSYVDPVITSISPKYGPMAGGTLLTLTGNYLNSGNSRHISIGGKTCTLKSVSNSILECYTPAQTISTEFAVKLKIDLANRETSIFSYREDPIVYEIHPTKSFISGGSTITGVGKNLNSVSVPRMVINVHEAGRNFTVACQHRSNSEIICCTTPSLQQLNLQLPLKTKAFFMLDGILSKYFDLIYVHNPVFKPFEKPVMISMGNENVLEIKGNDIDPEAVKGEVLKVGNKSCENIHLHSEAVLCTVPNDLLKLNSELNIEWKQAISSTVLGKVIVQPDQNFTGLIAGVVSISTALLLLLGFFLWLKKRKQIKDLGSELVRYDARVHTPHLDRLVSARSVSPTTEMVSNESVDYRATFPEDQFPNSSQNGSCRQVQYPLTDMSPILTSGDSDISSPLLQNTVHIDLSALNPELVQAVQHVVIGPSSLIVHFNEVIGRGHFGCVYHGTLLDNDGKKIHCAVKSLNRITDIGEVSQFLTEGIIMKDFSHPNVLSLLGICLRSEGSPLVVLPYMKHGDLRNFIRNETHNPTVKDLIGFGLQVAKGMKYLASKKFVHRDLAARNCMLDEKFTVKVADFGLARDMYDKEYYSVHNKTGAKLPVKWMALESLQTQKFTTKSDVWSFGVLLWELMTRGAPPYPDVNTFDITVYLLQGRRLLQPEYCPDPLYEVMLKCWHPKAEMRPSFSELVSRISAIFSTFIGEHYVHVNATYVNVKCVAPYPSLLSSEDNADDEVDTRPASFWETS
- method: MET (human) AlphaScreen kinase assay, Km of ATP
- Type: biochemical
- settings: AlphaScreen, Km of ATP; read-out: Met biochemical IC50
pIC50: −log10 of the molar value.
assay-readout: pIC50

Per the records, this compound ( C[C@@H](Oc1c(N)ncc2c(C3=CCN(C(=O)N4CC5CC4CO5)CC3)coc12)c1c(Cl)ccc(F)c1Cl (stereo partly drawn) ) has pIC50 equal to 5.30 to 6.30

Per the records, this compound ( C[C@@H](Oc1c(N)ncc2c(-c3ccc(NC(N)=O)cc3)coc12)c1c(Cl)ccc(F)c1Cl ) has pIC50 equal to 5.30 to 6.30

Per the records, this compound ( CCNC(=O)c1cc(-c2coc3c(O[C@H](C)c4c(Cl)ccc(F)c4Cl)c(N)ncc23)cs1 ) has pIC50 equal to 5.30 to 6.30

Per the records, this compound ( CC(Oc1c(N)ncc2c(-c3cnn(C4CCNCC4)c3)coc12)c1cccc(-c2ccccc2)c1 (stereo not drawn) ) has pIC50 equal to 5.30 to 6.30

Per the records, this compound ( Cc1c(F)cccc1C(C)Oc1c(N)ncc2c(-c3cnn(C4CCNCC4)c3)coc12 (stereo not drawn) ) has pIC50 equal to > 6.30

Per the records, this compound ( CC(Oc1c(N)ncc2c(-c3cnn(C4CCNCC4)c3)coc12)c1cccc(-c2ccn[nH]2)c1 (stereo not drawn) ) has pIC50 equal to 5.30 to 6.30

Per the records, this compound ( C[C@@H](Oc1c(N)ncc2c(-c3ccc(CN(C)C)cc3)coc12)c1c(Cl)ccc(F)c1Cl ) has pIC50 equal to > 6.30

Per the records, this compound ( CCS(=O)(=O)Nc1cccc(-c2coc3c(O[C@H](C)c4c(Cl)ccc(F)c4Cl)c(N)ncc23)c1 ) has pIC50 equal to 5.30 to 6.30

Per the records, this compound ( C[C@@H](Oc1c(N)ncc2c(-c3cncc(C(=O)N4CCOCC4)c3)coc12)c1c(Cl)ccc(F)c1Cl ) has pIC50 equal to 5.30 to 6.30

Per the records, this compound ( C[C@@H](Oc1c(N)ncc2c(-c3ccc(C(N)=O)s3)coc12)c1c(Cl)ccc(F)c1Cl ) has pIC50 equal to 5.30 to 6.30

Per the records, this compound ( C[C@@H](Oc1c(N)ncc2c(C3=CCN(C)CC3)coc12)c1c(Cl)ccc(F)c1Cl ) has pIC50 equal to > 6.30

Per the records, this compound ( C[C@@H](O)C(=O)N1CC=C(c2coc3c(O[C@H](C)c4c(Cl)ccc(F)c4Cl)c(N)ncc23)CC1 ) has pIC50 equal to > 6.30

Per the records, this compound ( C[C@@H](Oc1c(N)ncc2c(-c3cnn(C4CCNCC4)c3)coc12)c1ccccc1Cl ) has pIC50 equal to > 6.30

Per the records, this compound ( C[C@@H](Oc1c(N)ncc2c(-c3ccc(CO)cc3)coc12)c1c(Cl)ccc(F)c1Cl ) has pIC50 equal to 5.30 to 6.30

Per the records, this compound ( C[C@H](Oc1c(N)ncc2ccoc12)c1nnc2ccc(-c3ccccc3)nn12 ) has pIC50 equal to 4.70 to 5.30

----------
- measured-target: MET (human) (Homo sapiens)
- method: MET (human) AlphaScreen kinase assay, Km of ATP
- Assay type: biochemical
- settings: AlphaScreen, Km of ATP; read-out: Met biochemical IC50
- Method: Someone skilled in the art will appreciate that a variety of assay formats may be used to determine the activity of the compounds of this invention. For example, AlphaScreen (Amplified Luminescent Proximity Homogeneous Assay) technology was used with the kinases described below. […] Desired compound is added in a final concentration of 1% DMSO with control being vehicle of DMSO alone. […] The plates, incubated for 1 h, are read on an AlphaQuest plate reader
pIC50: −log10 of the molar value.
assay-readout: pIC50

Per the records, this compound ( C[C@@H](Oc1c(N)ncc2c(-c3ccnc4ccccc34)coc12)c1c(Cl)ccc(F)c1Cl ) has pIC50 equal to 5.30 to 6.30

Per the records, this compound ( Cc1ccc(-c2coc3c(O[C@H](C)c4c(Cl)ccc(F)c4Cl)c(N)ncc23)s1 ) has pIC50 equal to > 6.30

Per the records, this compound ( C[C@@H](Oc1c(N)ncc2c(-c3cccc(NS(=O)(=O)c4ccccc4)c3)coc12)c1c(Cl)ccc(F)c1Cl ) has pIC50 equal to 5.30 to 6.30

Per the records, this compound ( CC(Oc1c(N)ncc2c(-c3cnn(C4CCNCC4)c3)coc12)c1ccc(Cl)cc1 (stereo not shown) ) has pIC50 equal to 5.30 to 6.30

Per the records, this compound ( C[C@@H](Oc1c(N)ncc2c(-c3ccsc3)coc12)c1c(Cl)ccc(F)c1Cl ) has pIC50 equal to 5.30 to 6.30

Per the records, this compound ( COC(=O)c1coc2c(O[C@H](C)c3c(Cl)ccc(F)c3Cl)c(N)ncc12 ) has pIC50 equal to 5.30 to 6.30

Per the records, this compound ( CC(Cc1ccccc1F)Oc1c(N)ncc2c(-c3cnn(C4CCNCC4)c3)coc12 (stereo not shown) ) has pIC50 equal to > 6.30

Per the records, this compound ( C[C@@H](Oc1c(N)ncc2c(C3=CCN(C(=O)Nc4ccccc4F)CC3)coc12)c1c(Cl)ccc(F)c1Cl ) has pIC50 equal to 5.30 to 6.30

Per the records, this compound ( COC(=O)c1ccc(C(C)Oc2c(N)ncc3c(-c4cnn(C5CCNCC5)c4)coc23)cc1 (stereo not shown) ) has pIC50 equal to 5.30 to 6.30

Per the records, this compound ( C[C@@H](Oc1c(N)ncc2c(C(N)=O)coc12)c1c(Cl)ccc(F)c1Cl ) has pIC50 equal to 5.30 to 6.30

Per the records, this compound ( COc1ccccc1CC(C)Oc1c(N)ncc2c(-c3cnn(C4CCNCC4)c3)coc12 (stereo not shown) ) has pIC50 equal to > 6.30

Per the records, this compound ( C[C@@H](Oc1c(N)ncc2c(C3=CCN(C(=O)C(N)C(F)(F)F)CC3)coc12)c1c(Cl)ccc(F)c1Cl (stereo partly shown) ) has pIC50 equal to 5.30 to 6.30

Per the records, this compound ( CC(Oc1c(N)ncc2c(-c3cnn(C4CCNCC4)c3)coc12)c1ccc(Cl)cc1Cl (stereo not shown) ) has pIC50 equal to > 6.30

Per the records, this compound ( CC(Oc1c(N)ncc2c(-c3cnn(C4CCNCC4)c3)coc12)c1cccc(-c2cnn(C)c2)c1 (stereo not shown) ) has pIC50 equal to 5.30 to 6.30

Per the records, this compound ( CCNC(=O)c1ccc(-c2coc3c(O[C@H](C)c4c(Cl)ccc(F)c4Cl)c(N)ncc23)s1 ) has pIC50 equal to 5.30 to 6.30

Per the records, this compound ( CNC(=O)c1csc(-c2coc3c(O[C@H](C)c4c(Cl)ccc(F)c4Cl)c(N)ncc23)c1 ) has pIC50 equal to 5.30 to 6.30
